Recorded MIC values for a group of compounds are listed next.
system: Enterococcus faecalis; test: Antimicrobial activity against Enterococcus faecalis DSM 2570 after 48 hr by agar dilution method; type: functional; details: DSM 2570, 48 h

{"compound": "COC1(CC[C@@H](C)CO[C@@H]2O[C@H](CO)[C@@H](O)[C@H](O)[C@H]2O)O[C@H]2C[C@H]3[C@@H]4CC[C@H]5C[C@@H](O[C@@H]6O[C@H](CO)[C@H](O[C@@H]7O[C@H](CO)[C@@H](O)[C@H](O[C@@H]8O[C@H](CO)[C@@H](O)[C@H](O)[C@H]8O)[C@H]7O[C@@H]7O[C@H](CO)[C@@H](O)[C@H](O[C@@H]8O[C@H](CO)[C@@H](O)[C@H](O)[C@H]8O)[C@H]7O)[C@H](O)[C@H]6O)CC[C@]5(C)[C@H]4CC[C@]3(C)[C@H]2[C@@H]1C (some centres not stated) [22-O-METHYLCAPSICOSIDE G]", "observedResult": "> 1000 µg/mL"}

As a next step, examine the compound that follows.
I would be grateful if you could share the reported MIC for C[C@H](CCC1(O)O[C@H]2C[C@H]3[C@@H]4CC[C@H]5C[C@@H](O[C@@H]6O[C@H](CO)[C@H](O[C@@H]7O[C@H](CO)[C@@H](O)[C@H](O[C@@H]8O[C@H](CO)[C@@H](O)[C@H](O)[C@H]8O)[C@H]7O[C@@H]7O[C@H](CO)[C@@H](O)[C@H](O[C@@H]8O[C@H](CO)[C@@H](O)[C@H](O)[C@H]8O)[C@H]7O)[C@H](O)[C@H]6O)CC[C@]5(C)[C@H]4CC[C@]3(C)[C@H]2[C@@H]1C)CO[C@@H]1O[C@H](CO)[C@@H](O)[C@H](O)[C@H]1O (some centres not stated) [CAPSICOSIDE G] .
> 1000 µg/mL

---

system: Micrococcus luteus; assay: Antimicrobial activity against Micrococcus luteus DSM 348 after 48 hr by agar dilution method; type: functional; details: DSM 348, 48 h
readoutKind: MIC

I would be grateful if you could share the reported MIC for C=C(CCC1(OC)O[C@H]2C[C@H]3[C@@H]4CC[C@H]5C[C@@H](O[C@@H]6O[C@H](CO)[C@H](O[C@@H]7O[C@H](CO)[C@@H](O)[C@H](O[C@@H]8O[C@H](CO)[C@@H](O)[C@H](O)[C@H]8O)[C@H]7O[C@@H]7O[C@H](CO)[C@@H](O)[C@H](O[C@@H]8O[C@H](CO)[C@@H](O)[C@H](O)[C@H]8O)[C@H]7O)[C@H](O)[C@H]6O)[C@H](O)C[C@]5(C)[C@H]4CC[C@]3(C)[C@H]2[C@@H]1C)CO[C@@H]1O[C@H](CO)[C@@H](O)[C@H](O)[C@H]1O (stereo partly specified) [Capsicoside E] .
> 1000 µg/mL

---

system: Lactiplantibacillus plantarum; test: Antimicrobial activity against Lactobacillus plantarum DSM 20174 after 48 hr by agar dilution method; format: functional; conditions: DSM 20174, 48 h
Recorded MIC values for a group of compounds are listed next.
Please respond with the number in µg/mL and leave the unit unwritten.

These solved cases illustrate the format of a correct answer.
{"compound": "C[C@H](CCC1(O)O[C@H]2C[C@H]3[C@@H]4CC[C@H]5C[C@@H](O[C@@H]6O[C@H](CO)[C@H](O[C@@H]7O[C@H](CO)[C@@H](O)[C@H](O[C@@H]8OC[C@@H](O)[C@H](O)[C@H]8O)[C@H]7O[C@@H]7O[C@H](CO)[C@@H](O)[C@H](O)[C@H]7O)[C@H](O)[C@H]6O)CC[C@]5(C)[C@H]4CC[C@]3(C)[C@H]2[C@@H]1C)CO[C@@H]1O[C@H](CO)[C@@H](O)[C@H](O)[C@H]1O (stereo partly drawn)", "measuredTarget": "Lactiplantibacillus plantarum", "MIC, µg/mL": 1000}
{"compound": "C=C[C@](C)(CC/C=C(\\C)CC/C=C(\\C)CC/C=C(/C)CO[C@@H]1O[C@@H](C)[C@H](O)[C@@H](O[C@@H]2O[C@H](CO[C@@H]3O[C@@H](C)[C@H](O)[C@@H](O)[C@H]3O)[C@@H](O)[C@H](O)[C@H]2O)[C@H]1O)O[C@@H]1O[C@H](CO)[C@@H](O)[C@H](O)[C@H]1O[C@@H]1O[C@H](CO)[C@@H](O)[C@H](O)[C@H]1O [CAPSIANOSIDE II]", "measuredTarget": "Lactiplantibacillus plantarum", "MIC, µg/mL": 1000}

As a next step, examine the compound that follows.
I would be grateful if you could share the reported MIC for C[C@H](CCC1(O)O[C@H]2C[C@H]3[C@@H]4CC[C@H]5C[C@@H](O[C@@H]6O[C@H](CO)[C@H](O[C@@H]7O[C@H](CO)[C@@H](O)[C@H](O[C@@H]8O[C@H](CO)[C@@H](O)[C@H](O)[C@H]8O)[C@H]7O[C@@H]7O[C@H](CO)[C@@H](O)[C@H](O[C@@H]8O[C@H](CO)[C@@H](O)[C@H](O)[C@H]8O)[C@H]7O)[C@H](O)[C@H]6O)CC[C@]5(C)[C@H]4CC[C@]3(C)[C@H]2[C@@H]1C)CO[C@@H]1O[C@H](CO)[C@@H](O)[C@H](O)[C@H]1O (stereo partly drawn) [CAPSICOSIDE G] .
1000

---

tested on: Rhizopus arrhizus; assay: Antimicrobial activity against Rhizopus oryzae ATCC 56536 after 48 hr by agar dilution method; assay type: functional; conditions: ATCC 56536, 48 h
Recorded MIC values for a group of molecules are listed next.
Please respond with the number in µg/mL and leave the unit unwritten.

{"molecule": "COC1(CC[C@@H](C)CO[C@@H]2O[C@H](CO)[C@@H](O)[C@H](O)[C@H]2O)O[C@H]2C[C@H]3[C@@H]4CC[C@H]5C[C@@H](O[C@@H]6O[C@H](CO)[C@H](O[C@@H]7O[C@H](CO)[C@@H](O)[C@H](O[C@@H]8O[C@H](CO)[C@@H](O)[C@H](O)[C@H]8O)[C@H]7O[C@@H]7O[C@H](CO)[C@@H](O)[C@H](O[C@@H]8O[C@H](CO)[C@@H](O)[C@H](O)[C@H]8O)[C@H]7O)[C@H](O)[C@H]6O)[C@H](O)C[C@]5(C)[C@H]4CC[C@]3(C)[C@H]2[C@@H]1C (stereo not given in full) [O-METHYLCAPSICOSIDE A]", "unitString": "µg/mL", "MIC": 125}
{"molecule": "C[C@H](CCC1(O)O[C@H]2C[C@H]3[C@@H]4CC[C@H]5C[C@@H](O[C@@H]6O[C@H](CO)[C@H](O[C@@H]7O[C@H](CO)[C@@H](O)[C@H](O[C@@H]8O[C@H](CO)[C@@H](O)[C@H](O)[C@H]8O)[C@H]7O[C@@H]7O[C@H](CO)[C@@H](O)[C@H](O[C@@H]8O[C@H](CO)[C@@H](O)[C@H](O)[C@H]8O)[C@H]7O)[C@H](O)[C@H]6O)[C@H](O)C[C@]5(C)[C@H]4CC[C@]3(C)[C@H]2[C@@H]1C)CO[C@@H]1O[C@H](CO)[C@@H](O)[C@H](O)[C@H]1O (stereo not given in full) [CAPSICOSIDE A]", "unitString": "µg/mL", "MIC": 1000}
{"molecule": "C[C@H](CCC1(O)O[C@H]2C[C@H]3[C@@H]4CC[C@H]5C[C@@H](O[C@@H]6O[C@H](CO)[C@H](O[C@@H]7O[C@H](CO)[C@@H](O)[C@H](O[C@@H]8OC[C@@H](O)[C@H](O)[C@H]8O)[C@H]7O[C@@H]7O[C@H](CO)[C@@H](O)[C@H](O[C@@H]8O[C@H](CO)[C@@H](O)[C@H](O)[C@H]8O)[C@H]7O)[C@H](O)[C@H]6O)CC[C@]5(C)[C@H]4CC[C@]3(C)[C@H]2[C@@H]1C)CO[C@@H]1O[C@H](CO)[C@@H](O)[C@H](O)[C@H]1O (stereo not given in full) [CAPSICOSIDE D]", "unitString": "µg/mL", "MIC": 1000}
{"molecule": "C[C@H](CCC1(O)O[C@H]2C[C@H]3[C@@H]4CC[C@H]5C[C@@H](O[C@@H]6O[C@H](CO)[C@H](O[C@@H]7O[C@H](CO)[C@@H](O)[C@H](O[C@@H]8O[C@H](CO)[C@@H](O)[C@H](O)[C@H]8O)[C@H]7O[C@@H]7O[C@H](CO)[C@@H](O)[C@H](O[C@@H]8O[C@H](CO)[C@@H](O)[C@H](O)[C@H]8O)[C@H]7O)[C@H](O)[C@H]6O)CC[C@]5(C)[C@H]4CC[C@]3(C)[C@H]2[C@@H]1C)CO[C@@H]1O[C@H](CO)[C@@H](O)[C@H](O)[C@H]1O (stereo not given in full) [CAPSICOSIDE G]", "unitString": "µg/mL", "MIC": 1000}

As a next step, examine the molecule that follows.
I would be grateful if you could share the reported MIC for C[C@H](CCC1(O)O[C@H]2C[C@H]3[C@@H]4CC[C@H]5C[C@@H](O[C@@H]6O[C@H](CO)[C@H](O[C@@H]7O[C@H](CO)[C@@H](O)[C@H](O[C@@H]8OC[C@@H](O)[C@H](O)[C@H]8O)[C@H]7O[C@@H]7O[C@H](CO)[C@@H](O)[C@H](O)[C@H]7O)[C@H](O)[C@H]6O)CC[C@]5(C)[C@H]4CC[C@]3(C)[C@H]2[C@@H]1C)CO[C@@H]1O[C@H](CO)[C@@H](O)[C@H](O)[C@H]1O (stereo not given in full) .
1000
